- MEASUREMENT_PROTOCOL: Antifungal activity against Cryptococcus neoformans var. neoformans by EUCAST method
- Assay type: functional
- PROTOCOL_CONDITIONS: Cryptococcus deneoformans
Please respond with 1 when measured MIC is strictly beneath 0.1 mg/L, and with 0 in all other cases.

[
  {
    "COMPOUND": "CC[C@@H]([C@H](C)O)n1ncn(-c2ccc(N3CCN(c4ccc(OC[C@@H]5CO[C@@](Cn6cncn6)(c6ccc(F)cc6F)C5)cc4)CC3)cc2)c1=O",
    "QUALITATIVE_LABEL": 0
  }
]

Next up:
Exam item: State whether 0.1 mg/L exceeds MIC recorded for CCC(C)n1ncn(-c2ccc(N3CCN(c4ccc(OCC5COC(Cn6cncn6)(c6ccc(Cl)cc6Cl)O5)cc4)CC3)cc2)c1=O (stereo not given) .
Marked response: 0

---

- System: Candida tropicalis
- MEASUREMENT_PROTOCOL: Antifungal activity against Candida tropicalis by EUCAST method
- Type: functional
Please respond with t when measured MIC is strictly beneath 0.5 µg/mL, and with f in all other cases.

Exam item: State whether 0.5 µg/mL exceeds MIC recorded for C[C@@H]1[C@H](O)[C@@H](C)/C=C/C=C/C=C/C=C/C=C/C=C/C=C/[C@H](O[C@@H]2O[C@H](C)[C@@H](O)[C@H](N)[C@@H]2O)C[C@@H]2O[C@](O)(C[C@@H](O)C[C@@H](O)[C@H](O)CC[C@@H](O)C[C@@H](O)CC(=O)O[C@H]1C)C[C@H](O)[C@H]2C(=O)O .
Marked response: t

Exam item: State whether 0.5 µg/mL exceeds MIC recorded for CC[C@H](C)C[C@H](C)CCCCCCCCC(=O)N[C@H]1C[C@@H](O)[C@@H](NCCN)NC(=O)[C@@H]2[C@@H](O)CCN2C(=O)[C@H]([C@H](O)CCN)NC(=O)[C@H]([C@H](O)[C@@H](O)c2ccc(O)cc2)NC(=O)[C@@H]2C[C@@H](O)CN2C(=O)[C@H]([C@@H](C)O)NC1=O .
Marked response: t

Exam item: State whether 0.5 µg/mL exceeds MIC recorded for CC[C@@H]([C@H](C)O)n1ncn(-c2ccc(N3CCN(c4ccc(OC[C@@H]5CO[C@@](Cn6cncn6)(c6ccc(F)cc6F)C5)cc4)CC3)cc2)c1=O .
Marked response: t

Exam item: State whether 0.5 µg/mL exceeds MIC recorded for CCC(C)n1ncn(-c2ccc(N3CCN(c4ccc(OCC5COC(Cn6cncn6)(c6ccc(Cl)cc6Cl)O5)cc4)CC3)cc2)c1=O (stereo not given) .
Marked response: f

Exam item: State whether 0.5 µg/mL exceeds MIC recorded for C[C@@H](c1ncncc1F)[C@](O)(Cn1cncn1)c1ccc(F)cc1F .
Marked response: t

---

- Test system: Nakaseomyces glabratus
- MEASUREMENT_PROTOCOL: Antifungal activity against Candida glabrata
- Assay type: functional
RESULT_TYPE: MFC (µg/mL)
Answers are plain numbers, in µg/mL.

[
  {
    "QUERY_SMILES": "C[C@@H]1[C@H](O)[C@@H](C)/C=C/C=C/C=C/C=C/C=C/C=C/C=C/[C@H](O[C@@H]2O[C@H](C)[C@@H](O)[C@H](N)[C@@H]2O)C[C@@H]2O[C@](O)(C[C@@H](O)C[C@@H](O)[C@H](O)CC[C@@H](O)C[C@@H](O)CC(=O)O[C@H]1C)C[C@H](O)[C@H]2C(=O)O",
    "TEST_VALUE": 0.5
  }
]

// next entry
Input CC[C@H](C)C[C@H](C)CCCCCCCCC(=O)N[C@H]1C[C@@H](O)[C@@H](NCCN)NC(=O)[C@@H]2[C@@H](O)CCN2C(=O)[C@H]([C@H](O)CCN)NC(=O)[C@H]([C@H](O)[C@@H](O)c2ccc(O)cc2)NC(=O)[C@@H]2C[C@@H](O)CN2C(=O)[C@H]([C@@H](C)O)NC1=O . Output MFC: 0.15
